tested on: SK-OV-3 ovarian; assay: NCI-60 one-dose screen, 48 h (100 = growth as untreated, 0 = no growth, -100 = all killed); conditions: 10 µM unless noted
About 83,000 compounds went through this panel and 20% of them were active in at least one assay; those are over-represented in the sample as a whole. The source made the active and inactive calls. How the source made its calls: active means growth percent below 10; inactive means the rest.
measured attribute: growth

In [3]: df
Out[3]:
                                    compound   reported_result
 0  O=C(CSc1nnc(-c2cc(-c3ccccc3)nc3ccccc23)n1-c1ccccc1)Nc1ccc(C(=O)/C=C/c2ccc(Cl)cc2)cc1  94.2% (inactive)
 1  CCOC(=O)c1c(C)nc2c(c1N)CC(=O)N2Cc1ccc(OC)cc1    8.96% (active)
 2  C=CCOC(=O)C1=C(C)N(CC)C(=O)NC1c1c(Cl)n(C)c2ccccc12 (stereo not drawn)   102% (inactive)
 3  Clc1ccc(-c2cc(-c3ccccc3)nc(NCCNc3ccnc4cc(Cl)ccc34)n2)cc1   100% (inactive)
 4  CNC(=O)c1ccccc1Nc1nc(Nc2cc(OC)c(OC)c(OC)c2)ncc1Br   -77.2% (active)
 5  COC(=O)CCC/C=C\C[C@H]1C=CC(=O)/C1=C/C[C@@H](O)C/C=C\CC(F)(F)F  77.4% (inactive)
 6  COc1cc(-c2nc3cc(Cl)c(Cl)cc3[nH]2)ccc1OCC(=O)N=Nc1c(O)[nH]c2ccc(Cl)cc12    -5.3% (active)
 7  COc1ccc(N2CCN(C(=O)c3sc4nc(C)c(Br)c(C)c4c3N)CC2)cc1  90.1% (inactive)
 8  C=C(C)[C@@H]1CCC[C@]2(C(=O)O)CC[C@]3(C)[C@@H](CC[C@@H]4[C@@]5(C)C/C(=C/c6ccncc6)C(=O)C(C)(C)[C@@H]5CC[C@]43C)[C@@H]12    78% (inactive)
 9  CCCCNC(=O)c1cc([N+](=O)[O-])cc(C2CCCCC2)c1O  40.3% (inactive)
10                 Cc1cccc(N2CCC(=O)NC2=S)c1   107% (inactive)
11  Cc1cn(-c2cc(NC(=O)c3cncc(C#Cc4c(N)ncc5ccc(F)cc45)c3)cc(C(F)(F)F)c2)cn1  87.6% (inactive)
12  COC(=O)c1c2c(c(C)[n+]([O-])c1C)C(=O)C(NCc1ccc(OC)cc1)=CC2=O  99.2% (inactive)
13   COc1ccc(C(=S)N2CCN(c3ccc(Cl)cc3)CC2)cc1  98.5% (inactive)
14  N#C/C(=C\c1cn(Cc2ccccc2)c2ccccc12)C(=O)Nc1ncc(Cc2ccccc2Cl)s1    9.54% (active)
15  COc1ccc(Cn2cc(C(=O)N=Nc3c(O)[nH]c4c(C)cccc34)nn2)cc1   110% (inactive)
16  COc1ccc2c(c1)c(/C(O)=C1\COC(=O)C1=O)cn2Cc1ccc(F)cc1   110% (inactive)
17  CC1(C)NCCC[C@]2(C)[C@H]3CC[C@H]4[C@H]5[C@H](C(=O)/C=C/c6cccnc6)CCC[C@]5(CO)CC[C@@]4(C)[C@]3(C)CC[C@@H]12   108% (inactive)

---

system: MDA-MB-435 melanoma; test: NCI-60 one-dose screen, 48 h (100 = growth as untreated, 0 = no growth, -100 = all killed); conditions: 10 µM unless noted
Compounds without any hit were thinned out: in the full panel of roughly 83,000, 20% have a hit.
Quick list: growth per entry.
measured attribute: growth (%)

In [3]: df
Out[3]:
                                    molecule  reported_result
 0  Cc1ccc(-c2nc3nc(-c4ccccc4)nc(N4CCCN(S(C)(=O)=O)CC4)c3o2)cc1             34.5
 1    CCN(CC)Cc1cc(Nc2ccnc3cc(Cl)ccc23)ccc1O             97.8
 2  CC1C(/C=N/NC(N)=S)C(C#N)(C#N)C1(C#N)C#N (stereo unspecified)             98.3
 3  CCOC(=O)C1=C(C)/C(=C\c2[nH]c(C)c(C(=O)OCC)c2C)N=C1C             80.6
 4              O=C(Nc1ccc(Br)cc1)C1=NCCCCN1             75.3
 5  O=C1NC(=O)/C(=C/c2c(-c3ccccc3)nc3sc(COc4ccccc4)nn23)S1              102
 6  COc1cccc(CCNc2ncnc3c2ncn3Cc2nnc3c4ccccc4c(Cl)nn23)c1             57.5
 7  N=C(N)c1ccc(-c2ccc(-c3cc(Cl)cc(Cl)c3)s2)nc1             44.6
 8         c1ccc(CCNc2c3ccccc3nc3ccccc23)cc1             55.3
 9  COc1ccc2c(c1)/C(=N/c1n[nH]c(=S)s1)C(=O)N2              104
10           O=C1c2ccccc2C(=O)C1c1ccc(Br)cc1             97.9

---

system: A498 renal; assay: NCI-60 one-dose screen, 48 h (100 = growth as untreated, 0 = no growth, -100 = all killed); settings: 10 µM unless noted
The panel holds about 83,000 compounds, 20% with a hit somewhere; the sample as a whole holds those more often. Active and inactive are the calls of the source. Rule for the calls: active = growth percent below 10; inactive = the rest.
measured attribute: growth

In [3]: df
Out[3]:
                                    compound           reported_result
 0  O=C1c2cccc3cccc(c23)C(=O)N1C/C=C/c1ccc2c3c(cccc13)C(=O)N(CCO)C2=O          74.7% (inactive)
 1  O=C(C1=Cc2cc3ccccc3n2Cc2cnnn21)c1ccc(O)cc1           111% (inactive)
 2  COC(=O)c1nc(-c2ccccc2)oc1S(=O)(=O)NCC(c1ccc(Cl)cc1)N1CCOCC1 (stereo not given)          90.4% (inactive)
 3                  O=C(O)COc1ccc(Cl)c(Cl)c1           110% (inactive)
 4  COc1cc(NC(=O)c2cncnc2Nc2ccc3c(ccn3Cc3ccccn3)c2)cc(OC)c1           -12.5% (active)
 5  O=C(CCl)NNc1nccc(Nc2ccc(S(=O)(=O)Nc3ccncc3)cc2)n1          80.8% (inactive)
 6  CN1CCN(c2ccc3nc4c(nc3c2C(F)(F)F)C(=O)c2ncccc2C4=O)CC1           -21.1% (active)
 7  CC(=O)ON1CCCC(P(=O)(OCCSC(=O)C(C)(C)C)OCCSC(=O)C(C)(C)C)C1=O (stereo not given)           -8.82% (active)
 8      CCN(CC)c1ccc(CNc2cc(C)nc3ccccc23)cc1          52.5% (inactive)
 9  NC(=O)c1c(NC(=O)c2cccc(C(F)(F)F)c2)sc2c1CCC(=O)C2          53.2% (inactive)
10  CCCC(CC)(C(=O)Nc1ccc2nc(C)cc(N)c2c1)C(=O)Nc1ccc2nc(C)cc(N)c2c1           104% (inactive)
11  O=C(CCCCCCN1CC(=O)N2[C@H](c3ccc(Br)cc3)c3[nH]c4ccccc4c3C[C@@H]2C1=O)NO          67.4% (inactive)
12  CCCCNC(=O)Oc1ccc(/C(=C(/C)Cc2ccc(OC)cc2)c2ccc(OCCN3CCCCC3)cc2)cc1          96.3% (inactive)
13  O=C(CCCCCNC(=O)c1cc(=O)c(O)co1)Nc1ccccc1            96% (inactive)
14  CCOC(=O)c1cc(C(=O)c2cc(OC)c(OC)c(OC)c2)n2ccccc12           -1.31% (active)
15  CN(CCCNC(=O)Cc1ccc2ccc3cccc4ccc1c2c34)CCCNc1cc(-c2ccc3ccccc3c2)nc2ccccc12             -62% (active)
16  S=c1nc2oc(-c3ccccc3)c(-c3ccccc3)c2c(/N=C\c2ccco2)[nH]1           101% (inactive)
17  CCNC(=O)Oc1ccc(/C(=C(/C)Cc2ccc(OC)cc2)c2ccc(OCCN3CCCCC3)cc2)cc1          90.8% (inactive)
18  CCCCNc1nnc2n(Cc3ccccc3)c(=O)c3c4c(sc3n12)CCCC4          45.4% (inactive)
19  Nc1nc2c(c3ncccc13)C(c1cccc(Cl)c1)Cc1ncccc1-2 (stereo not given)           -7.23% (active)
20  Nc1[nH]n2cc(-c3ccc(F)cc3)nc2c1N=Nc1ccc(S(N)(=O)=O)cc1          40.1% (inactive)
21       N=C(N)c1ccc(-c2ccc(-c3ccccc3)s2)cc1          89.1% (inactive)
22  COc1ccc(C(=O)/C=C/c2ccc(Cl)cc2)cc1S(=O)(=O)Nc1c(N)nc(SC)[nH]c1=O          80.9% (inactive)
23  CCCCNc1cc(-c2cn[nH]c2-c2cc(C)cc(OC)c2)nc(-c2cccnc2)n1          64.4% (inactive)
24  CCOC(=O)C1=C(C)/C(=C\c2[nH]c(C)c(C(=O)OCC)c2C)N=C1C           103% (inactive)
25  O=[N+]([O-])c1cc(NS(=O)(=O)c2ccccc2)ccc1NS(=O)(=O)c1ccccc1           115% (inactive)
26  O=C1/C=C/[C@@H](O)[C@@H]2C[C@@H](O)C[C@H]2/C=C/CCC[C@@H](O)CCO1          66.7% (inactive)
27  COc1ccc(-c2cc(-c3ccccc3)nc(N3CCN(CCNc4ccnc5cc(Cl)ccc45)CC3)n2)cc1          15.3% (inactive)
28  CCCn1cnc2c(c1=N)C(c1ccc(F)cc1)c1sc3c(F)cccc3c1O2 (stereo not given)          51.1% (inactive)
29                             Cn1ccc(=O)nc1          98.1% (inactive)
30  O=C1Nc2ccccc2/C1=C/c1cccn1C(=O)c1ccc(Cl)s1          67.4% (inactive)
31  O=C(Cc1ccc(/C=C/C(=O)c2ncc[nH]2)cc1)Nc1cc(C(F)(F)F)cc(C(F)(F)F)c1          94.3% (inactive)
32  N#Cc1c(-c2ccccc2)nc(SCc2nnc(-c3ccc(Cl)cc3)o2)[nH]c1=O           107% (inactive)
33  COc1ccc(C(O)c2cc3c(N)c(C(=O)Nc4cccc(Cl)c4C)sc3nc2C)cc1 (stereo not given)           -24.7% (active)
34  Cc1ccc(C)c2c(C)c(C(=O)Nc3cccc(-n4cccn4)c3)oc12  55.6% [50 µM] (inactive)
35  O=C(/C=C/c1ccc(Oc2ccc(Br)cc2)cc1)c1ccc(Br)cc1          73.6% (inactive)
36  O=C(CN1CCCCCC1)Nc1nc2ccc(NCc3ccc(Cl)cc3)cc2s1           110% (inactive)
37  CCOC(=O)C(=CNc1cnc(Nc2ccc(N3CCOCC3)cc2)nc1Oc1ccc(OC)cc1)C(=O)OCC          42.1% (inactive)
38  CCN1C(=O)N(CC)C2C1NC(=S)N2/N=C/c1ccc(OC)cc1 (stereo not given)          29.9% (inactive)
39  N#Cc1c(Nc2ccc(N3CCOCC3)cc2)nc(SCC(=O)c2ccc(Br)cc2)nc1-c1ccccc1           105% (inactive)
